- test.protocol: Half life in human liver microsome by HPLC-MS/MS analysis in presence of 0.1 uM NADPH
- Format: ADME
- experimental.parameters: liver microsomes
measure: half-life

Task: Dear colleague, I am looking for the recorded half-life of the following molecule: CCOc1cc(NC(=N)c2ccccn2)ccc1-c1ccc(-c2ccc(NC(=N)c3ccccn3)cc2OCC)o1
Result: > 2 h

Task: Dear colleague, I am looking for the recorded half-life of the following molecule: CC(C)Oc1cc(NC(=N)c2ccccn2)ccc1-c1ccc(-c2ccc(NC(=N)c3ccccn3)cc2OC(C)C)o1
Result: > 2 h

###

- System: Mus musculus
- test.protocol: Renal toxicity in BALB/c mouse assessed as blood urea nitrogen level in serum at 25 mg/kg/day, po administered for five days (Rvb= 29 mg/dl)
- Format: organism-based
- Parameters: route oral
- experimental.parameters: in vivo
measure: Activity (mg/dL)
The answer is to be given in mg/dL; state only the numeric part.

Task: Give Activity (Mus musculus) of the following compound: CC(C)Oc1cc(NC(=N)c2ccccn2)ccc1-c1ccc(-c2ccc(NC(=N)c3ccccn3)cc2OC(C)C)o1
Result: 27

Task: Give Activity (Mus musculus) of the following compound: CCOc1cc(NC(=N)c2ccccn2)ccc1-c1ccc(-c2ccc(NC(=N)c3ccccn3)cc2OCC)o1
Result: 29
